src = patent US20160264593A1

- experimental_protocol: in vivo
- Parameters: species or system SD rats
- experimental_conditions: male, SD, rat, iv, 1.4 mg/kg, plasma concentration of 113
quantity_name: concentration at 0.25 h (ng/mL)
Report only the number, with the unit ng/mL understood.

Problem: Which concentration at 0.25 h reading was recorded for the compound CN1CCN(C(=O)C2C(C(=O)OCC(Cl)(Cl)Cl)[C@H]3CC[C@@H]2O3)CC1 (stereo partly shown) [Compound 113] ?
Result: 173

* * *

- experimental_protocol: Pharmacokinetic study of 153 (and metabolite endothal) in SD rats, iv and po; plasma, liver, brain
- Assay type: in vivo
- experimental_conditions: female, SD, rat, in vivo, iv, 1.25 mg/kg, 153 in plasma, IV 1.25 mg/kg, rat 2; read-out: Cmax
quantity_name: Cmax (ng/mL)
Report only the number, with the unit ng/mL understood.

Problem: Which Cmax reading was recorded for the compound CCCOC(=O)C1C2CCC(O2)C1C(=O)N1CCN(C)CC1 (stereo not shown) ?
Result: 550

* * *

- experimental_protocol: Pharmacokinetic study of 157 (and metabolite endothal) in SD rats, iv and po; plasma, liver, brain
- Assay type: in vivo
- experimental_conditions: female, SD (Sprague-Dawley), rat, in vivo, iv, 1.5 mg/kg, 157 in plasma, IV 1.5 mg/kg, rat 1; read-out: MRT (0-t)
- Protocol: The blood, liver and brain tissue samples were collected at predetermined times from rats. […] Compound were diluted shortly before use in 4% sodium bicarbonate for sterile injection (this is the standard pediatric solution of NaHCO3 with a pH of about 8.5). Compound 153 was freshly prepared by diluting the drugs shortly before use in 4% sodium bicarbonate for sterile injection (this is the standard pediatric solution of NaHCO3 with a pH of about 8.5). […]
quantity_name: MRT last (min)
Report only the number, with the unit min understood.

Problem: Which MRT last reading was recorded for the molecule CCCCCCCOC(=O)C1C2CCC(O2)C1C(=O)N1CCN(C)CC1 (stereo not shown) [Compound 157] ?
Result: 20

* * *

- experimental_protocol: Pharmacokinetic study of 153 (and metabolite endothal) in SD rats, iv and po; plasma, liver, brain
- Type: in vivo
- experimental_conditions: female, Sprague-Dawley (SD), rat, in vivo, iv, 1.25 mg/kg, Brain, 1.25 mg/kg IV, Mean; read-out: Cmax
quantity_name: Cmax (ng/g)
Report only the number, with the unit ng/g understood.

Problem: Which Cmax reading was recorded for the molecule CCCOC(=O)C1C2CCC(O2)C1C(=O)N1CCN(C)CC1 (stereo not shown) [Compound 153] ?
Result: 42.7

* * *

- System: PP2A
- experimental_protocol: PP2A activity in mouse brains after IP dosing (PP2A immunoprecipitation phosphatase assay, malachite green)
- Format: in vivo, Balb/c mice
- experimental_conditions: low dose IP (mpk: 100 0.75, 113 1.1, 151 0.8, 153 0.85, 157 1.0), 6 h, brain
quantity_name: Average Conc. (group of 3 mice)
# output: bare number, no unit

Problem: Which Average Conc. (group of 3 mice) reading was recorded for the compound CCCCCCCOC(=O)C1C2CCC(O2)C1C(=O)N1CCN(C)CC1 (centres unmarked) ?
Result: 1413.26

Problem: Note, next up: COC(=O)C1C2CCC(O2)C1C(=O)N1CCN(C)CC1 (centres unmarked)
Result: 1662.31

Problem: Note, next up: CN1CCN(C(=O)C2C3CCC(O3)C2C(=O)O)CC1 (centres unmarked)
Result: 1009.84

Further cases:
Problem: Which Average Conc. (group of 3 mice) reading was recorded for the compound CCCOC(=O)C1C2CCC(O2)C1C(=O)N1CCN(C)CC1 (centres unmarked) ?
Result: 2104.97

Problem: Note, next up: CN1CCN(C(=O)C2C(C(=O)OCC(Cl)(Cl)Cl)[C@H]3CC[C@@H]2O3)CC1 (some centres unmarked)
Result: 1212.05

* * *

- experimental_protocol: Pharmacokinetic study of 153 (and metabolite endothal) in SD rats, iv and po; plasma, liver, brain
- Format: in vivo
- experimental_conditions: female, SD, rat, in vivo, po, 1.25 mg/kg, 153 in plasma, PO 1.25 mg/kg, rat 2; read-out: MRT (0-t)
quantity_name: MRT last (h)
Report only the number, with the unit h understood.

Problem: Which MRT last reading was recorded for the molecule CCCOC(=O)C1C2CCC(O2)C1C(=O)N1CCN(C)CC1 (stereo not shown) ?
Result: 1.04

* * *

- experimental_protocol: in vivo
- experimental_conditions: male, Sprague-Dawley, rat, in vivo, iv, 1 mg/kg, AUC0-t of 100
quantity_name: AUC(0-t) (ng·h/mL)
Report only the number, with the unit ng·h/mL understood.

Problem: Which AUC(0-t) reading was recorded for the molecule CN1CCN(C(=O)C2C3CCC(O3)C2C(=O)O)CC1 (stereo not shown) [Compound 100] ?
Result: 681

* * *

Recorded measurements of Average Relative Activity (group, vehicle = 100), one per entry
- Test system: PP2A
- experimental_protocol: PP2A activity in mouse brains after IP dosing (PP2A immunoprecipitation phosphatase assay, malachite green)
- Format: in vivo, Balb/c mice
- experimental_conditions: high dose IP (mpk: 100 1.5, 113 2.2, 151 1.6, 153 1.7, 157 2.0), 6 h, brain

Problem: Which Average Relative Activity (group, vehicle = 100) reading was recorded for the compound CN1CCN(C(=O)C2C3CCC(O3)C2C(=O)O)CC1 (centres unmarked) [Compound 100] ?
Result: 102.54

Problem: Note, next up: CCCCCCCOC(=O)C1C2CCC(O2)C1C(=O)N1CCN(C)CC1 (centres unmarked) [Compound 157]
Result: 62.95

Problem: Note, next up: COC(=O)C1C2CCC(O2)C1C(=O)N1CCN(C)CC1 (centres unmarked) [Compound 151]
Result: 74.99

Problem: Note, next up: CN1CCN(C(=O)C2C(C(=O)OCC(Cl)(Cl)Cl)[C@H]3CC[C@@H]2O3)CC1 (some centres unmarked) [Compound 113]
Result: 64.36

Attention now shifts to the item below.
Problem: Which Average Relative Activity (group, vehicle = 100) reading was recorded for the compound CCCOC(=O)C1C2CCC(O2)C1C(=O)N1CCN(C)CC1 (centres unmarked) [Compound 153] ?
Result: 61.07

* * *

- experimental_protocol: in vivo
- experimental_conditions: rat, po
quantity_name: bioavailability (%)
Report only the number, with the unit % understood.

Problem: Which bioavailability reading was recorded for the compound CN1CCN(C(=O)C2C3CCC(O3)C2C(=O)O)CC1 (stereo not shown) ?
Result: 1

* * *

- experimental_protocol: Pharmacokinetic study of 157 (and metabolite endothal) in SD rats, iv and po; plasma, liver, brain
- Type: in vivo
- experimental_conditions: female, SD (Sprague-Dawley), rat, in vivo, po, 1.5 mg/kg, 157 in plasma, PO 1.5 mg/kg, Mean
quantity_name: AUC(0-inf) (ng·h/mL)
Report only the number, with the unit ng·h/mL understood.

Problem: Which AUC(0-inf) reading was recorded for the molecule CCCCCCCOC(=O)C1C2CCC(O2)C1C(=O)N1CCN(C)CC1 (stereo not shown) ?
Result: 3.2

* * *

- experimental_protocol: Pharmacokinetic study of 100 (and metabolite endothal) in SD rats, iv; plasma, liver, brain
- experimental_conditions: female, SD, rat, in vivo, iv, 1.5 mg/kg, Endothal liver concentration, 100 iv 1.5 mg/kg, SD rats, 2 hr, mean
- Experimental: 100 was administrated via iv route at 0.5, 1.0 and 1.5 mg/kg into SD rats. The blood, liver and brain tissue samples were collected at predetermined times from rats. Twelve (12) female SD rats per group were dosed by iv with 100. The rats were fasted overnight prior to dosing, with free access to water. Foods were withheld for 2 hours post-dose. Blood, liver and brain tissue samples in two animals each group were collected at each time point, within 10% of the scheduled time for each time point. […]
quantity_name: concentration at 2 h (ng/g)
Report only the number, with the unit ng/g understood.

Problem: Which concentration at 2 h reading was recorded for the molecule O=C(O)C1C2CCC(O2)C1C(=O)O (stereo not shown) [Endothal] ?
Result: 2590

* * *

- experimental_protocol: Pharmacokinetic study of 153 (and metabolite endothal) in SD rats, iv and po; plasma, liver, brain
- Format: in vivo
- experimental_conditions: female, SD, rat, in vivo, iv, 1.25 mg/kg, iv 1.25 mg/kg, 1 hr, Rat 1; read-out: 153 brain concentration
- Experimental: The blood, liver and brain tissue samples were collected at predetermined times from rats. […] Compound were diluted shortly before use in 4% sodium bicarbonate for sterile injection (this is the standard pediatric solution of NaHCO3 with a pH of about 8.5). Compound 153 was freshly prepared by diluting the drugs shortly before use in 4% sodium bicarbonate for sterile injection (this is the standard pediatric solution of NaHCO3 with a pH of about 8.5). […]
quantity_name: concentration at 1 h (ng/g)
Report only the number, with the unit ng/g understood.

Problem: Which concentration at 1 h reading was recorded for the compound CCCOC(=O)C1C2CCC(O2)C1C(=O)N1CCN(C)CC1 (stereo not shown) ?
Result: 13.9
